Every entry's value here was drawn from patent US20220281848A1.

// damage to plant (100=total damage; 0=no damage) ECHCG lookup, one value per entry
- Test system: barnyardgrass (Echinochloa crus-galli, ECHCG)
- PROTOCOL: Test A post-emergence, barnyardgrass
- Format: in vivo
- EXPERIMENTAL_PARAMETERS: Post-Emergence at 15.625 g/ha; after 13 d

Here's what some known entries look like.
MOLECULE	ASSAY_TARGET	MEASURED_RESULT
CN1CC(c2cc(C(F)(F)F)n(C)n2)C(C(=O)Nc2ccc(F)c(F)c2F)C1=O (racemic) [Compound 17]	barnyardgrass (Echinochloa crus-galli, ECHCG)	60
CN1CC(c2nn(C)c(Cl)c2Br)C(C(=O)Nc2ccc(F)cc2F)C1=O (racemic) [Compound 30]	barnyardgrass (Echinochloa crus-galli, ECHCG)	0

Form field damage to plant (100=total damage; 0=no damage) ECHCG, entry CCn1nc([C@H]2CN(C)C(=O)[C@@H]2C(=O)Nc2cccc(F)c2F)c2c(F)cccc21 [Compound 7] : 60

Form field damage to plant (100=total damage; 0=no damage) ECHCG, entry CCn1nc([C@@H]2CN(C)C(=O)[C@H]2C(=O)Nc2cccc(F)c2F)c2cccc(F)c21 [Compound 14] : 80

* * *

- System: plants
- PROTOCOL: Test D pre-emergence, other plants of Tables D1 and D3
- Type: in vivo
- EXPERIMENTAL_PARAMETERS: pre-emergence, rate 60, 20 DAA, 100=total damage, 0=no damage
// damage to plant, BROTE lookup, one value per entry
Answer with a number only.

Here's what some known entries look like.
COMPOUND	damage to plant, BROTE
COc1c(F)cccc1NC(=O)C1C(=O)N(C)CC1c1cc(C(F)(F)F)n(C)n1 (racemic)	0
CN1C[C@H](c2nn(C)c3c(F)cccc23)[C@@H](C(=O)Nc2cccc(F)c2F)C1=O	0
CN1CC(c2cc(C(F)(F)F)n(C)n2)C(C(=O)Nc2ccc(F)nc2F)C1=O (racemic)	0
CN1CC(c2cc(C(F)(F)F)n(C)n2)C(C(=O)Nc2cccc(F)c2C(F)(F)F)C1=O (racemic)	0

Form field damage to plant, BROTE, entry `CCn1nc([C@H]2CN(C)C(=O)[C@@H]2C(=O)Nc2cccc(F)c2F)c2ccc(F)cc21` : 0

Form field damage to plant, BROTE, entry CN1CC(c2cc(C(F)(F)F)n(C)n2)C(C(=O)Nc2ccc(F)cc2F)C1=O (racemic) : 0

Form field damage to plant, BROTE, entry CN1CC(c2cc(C(F)(F)F)n(C)n2)C(C(=O)Nc2ccc(F)c(F)c2F)C1=O (racemic) : 0

* * *

// damage to plant (100=total damage; 0=no damage) ZEAMX lookup, one value per entry
- Tested on: corn (Zea mays, ZEAMX)
- PROTOCOL: Test A pre-emergence, corn
- Type: in vivo
- EXPERIMENTAL_PARAMETERS: Pre-Emergence at 15.625 g/ha; after 13 d
- Text: Seeds of corn (Zea mays, ZEAMX), giant foxtail (Setaria faberi, SETFA), barnyardgrass (Echinochloa crus-galli, ECHCG), ivy-leaved morning glory (Ipomoea hederacea, IPOHE), redroot pigweed (Amaranthus retroflexus, AMARE) and velvetleaf (Abutilon theophrasti, ABUTH) were sown in standard soil in pots. […]
Answer with a number only.

COMPOUND	MEASURED_RESULT
CCn1nc([C@H]2CN(C)C(=O)[C@@H]2C(=O)Nc2cccc(F)c2F)c2ccc(F)cc21	0
Cn1nc([C@H]2CNC(=O)[C@@H]2C(=O)Nc2cccc(F)n2)cc1C(C)(C)C	0
CN1CC(c2nn(C)c(Cl)c2Br)C(C(=O)Nc2cccc(F)c2F)C1=O (racemic)	0

Form field damage to plant (100=total damage; 0=no damage) ZEAMX, entry CN1CC(c2cc(C(F)(F)F)n(C)n2)C(C(=O)Nc2ccc(F)c(F)c2F)C1=O (racemic) : 60

Form field damage to plant (100=total damage; 0=no damage) ZEAMX, entry COc1c(F)cccc1NC(=O)C1C(=O)N(C)CC1c1cc(C(F)(F)F)n(C)n1 (racemic) : 30

Form field damage to plant (100=total damage; 0=no damage) ZEAMX, entry `CCn1nc([C@@H]2CN(C)C(=O)[C@H]2C(=O)Nc2cccc(F)c2F)c2cccc(F)c21` : 20

* * *

- Test system: plants
- PROTOCOL: Test D pre-emergence, other plants of Tables D1 and D3
- Format: in vivo
- EXPERIMENTAL_PARAMETERS: CYPES; preemergent; rate 250; 20 DAA
// damage to plant (100=total damage to plant; 0=no damage to plant), CYPES lookup, one value per entry
Answer with a number only.

Here's what some known entries look like.
COMPOUND	MEASURED_RESULT
CN1CC(c2cc(C(F)(F)F)n(C)n2)C(C(=O)Nc2ccc(F)nc2F)C1=O (racemic) [Compound 22]	0
CN1CC(c2cnn(C)c2C(F)(F)F)C(C(=O)Nc2cccc(F)c2F)C1=O (racemic) [Compound 25]	0
CN1CC(c2cc(C(F)(F)F)n(C)n2)C(C(=O)Nc2ccc(F)cc2F)C1=O (racemic) [Compound 6]	10

Now examine the next entry.
Measured damage to plant (100=total damage to plant; 0=no damage to plant), CYPES (plants), entry CN1CC(c2cc(C(F)(F)F)n(C)n2)C(C(=O)Nc2ccc(F)cc2C(C)(F)F)C1=O (racemic) [Compound 26] : 0

* * *

- Test system: plants
- PROTOCOL: Test D post-emergence, other plants of Tables D2 and D4
- Type: in vivo
- EXPERIMENTAL_PARAMETERS: POAAN; "Cereals" Postemergent; Rates 130; evaluated after 15 d
VALUE_KIND: POAAN damage rating (100=total damage to plant; 0=no damage to plant)
Answer with a number only.

Here's what some known entries look like.
COMPOUND	MEASURED_RESULT
CN1C[C@H](c2nn(C)c3c(F)cccc23)[C@@H](C(=O)Nc2cccc(F)c2F)C1=O	20
CN1CC(c2cc(C(F)(F)F)n(C)n2)C(C(=O)Nc2cccc(F)n2)C1=O (racemic)	0
CN1CC(c2cc(C(F)(F)F)n(C)n2)C(C(=O)Nc2cccc(F)c2C(F)(F)F)C1=O (racemic)	0

Form field POAAN damage rating (100=total damage to plant; 0=no damage to plant), entry CN1CC(c2cc(C(F)(F)F)n(C)n2)C(C(=O)Nc2ccc(F)cc2F)C1=O (racemic) : 0

Form field POAAN damage rating (100=total damage to plant; 0=no damage to plant), entry CN1CC(c2cc(C(F)(F)F)n(C)n2)C(C(=O)Nc2ccc(F)nc2F)C1=O (racemic) : 0

* * *

// damage to plant (100=total damage to plant; 0=no damage to plant), IPOHE lookup, one value per entry
- Test system: plants
- PROTOCOL: Test D pre-emergence, other plants of Tables D1 and D3
- Assay type: in vivo
- EXPERIMENTAL_PARAMETERS: IPOHE; preemergent; rate 30; 20 DAA
Answer with a number only.

Here's what some known entries look like.
COMPOUND	MEASURED_RESULT
CN1CC(c2cc(C(F)(F)F)n(C)n2)C(C(=O)Nc2cccc(F)c2C(F)(F)F)C1=O (racemic)	0
CN1CC(c2cnn(C)c2C(F)(F)F)C(C(=O)Nc2cccc(F)c2F)C1=O (racemic)	0
CCn1nc([C@H]2CN(C)C(=O)[C@@H]2C(=O)Nc2cccc(F)c2F)c2c(F)cccc21	0
CN1CC(c2cc(C(F)(F)F)n(C)n2)C(C(=O)Nc2ccc(F)c(F)c2F)C1=O (racemic)	0

Now examine the next entry.
Form field damage to plant (100=total damage to plant; 0=no damage to plant), IPOHE, entry CN1CC(c2cc(C(F)(F)F)n(C)n2)C(C(=O)Nc2ccc(F)nc2F)C1=O (racemic) : 0

* * *

- Tested on: plants
- PROTOCOL: Test D pre-emergence, other plants of Tables D1 and D3
- Format: in vivo
- EXPERIMENTAL_PARAMETERS: ELEIN; preemergent; rate 130; 20 DAA
- Experimental: A formulation containing 50 g/L of the test chemical was prepared by dissolving the active ingredient in a mixture of organic solvents and emulsifier, details of which are provided in the table. This formulation was then mixed with a small, variable amount of acetone to aid dissolution, before addition of a 0.2% v/v aqueous solution of an adjuvant, as the aqueous diluent, to form an aqueous spray solution which contains a predetermined concentration of the active ingredient. […]
VALUE_KIND: damage to plant (100=total damage to plant; 0=no damage to plant), ELEIN
Answer with a number only.

Form field damage to plant (100=total damage to plant; 0=no damage to plant), ELEIN, entry CN1CC(c2cc(C(F)(F)F)n(C)n2)C(C(=O)Nc2ccc(F)c(F)c2F)C1=O (racemic) : 0

Form field damage to plant (100=total damage to plant; 0=no damage to plant), ELEIN, entry CN1CC(c2cc(C(F)(F)F)n(C)n2)C(C(=O)Nc2cccc(F)c2F)C1=O (racemic) : 0

Form field damage to plant (100=total damage to plant; 0=no damage to plant), ELEIN, entry CN1CC(c2cc(C(F)(F)F)n(C)n2)C(C(=O)Nc2cccc(F)c2C(F)(F)F)C1=O (racemic) : 0

Form field damage to plant (100=total damage to plant; 0=no damage to plant), ELEIN, entry `CCn1nc([C@H]2CN(C)C(=O)[C@@H]2C(=O)Nc2cccc(F)c2F)c2c(F)cccc21` : 60
